These compounds were tested on VEGFR2 (Rattus norvegicus); pIC50 is the recorded read-out.
Sequence (O08775 786-1343): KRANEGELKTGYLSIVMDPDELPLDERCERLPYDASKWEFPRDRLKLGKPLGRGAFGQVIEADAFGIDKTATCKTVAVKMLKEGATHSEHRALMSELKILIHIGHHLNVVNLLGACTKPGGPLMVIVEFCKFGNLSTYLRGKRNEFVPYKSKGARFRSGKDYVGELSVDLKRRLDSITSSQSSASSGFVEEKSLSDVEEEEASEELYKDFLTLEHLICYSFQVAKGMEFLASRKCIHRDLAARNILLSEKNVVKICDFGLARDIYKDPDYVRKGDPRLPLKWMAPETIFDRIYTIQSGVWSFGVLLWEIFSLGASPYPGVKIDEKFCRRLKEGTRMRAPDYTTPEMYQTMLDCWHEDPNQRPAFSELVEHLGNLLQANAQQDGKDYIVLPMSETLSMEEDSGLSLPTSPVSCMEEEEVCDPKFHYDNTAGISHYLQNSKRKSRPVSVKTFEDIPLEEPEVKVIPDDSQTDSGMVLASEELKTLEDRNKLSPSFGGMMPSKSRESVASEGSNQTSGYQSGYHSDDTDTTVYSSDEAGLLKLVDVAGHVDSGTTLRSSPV
Schema: pIC50 number; meaning minus log10 of the concentration expressed in molar units.

Take a look at these entries with their results.
{"columns": ["SMILES_REPRESENTATION", "READOUT_VALUE"],
 "data": [
  ["CCNCc1cncc(C=Cc2c[nH]nc2-c2nc3ccc(OC)cc3[nH]2)c1", 6.09],
  ["COc1ccc2nc(-c3n[nH]cc3C=Cc3cccnc3)[nH]c2c1", 6.01],
  ["COC(=O)c1cncc(C=Cc2c[nH]nc2-c2nc3ccc(OC)cc3[nH]2)c1", 5.89],
  ["COc1ccc2nc(-c3n[nH]cc3C=Cc3cncc(C#N)c3)[nH]c2c1", 5.76]
]}

Lab note: next compound to report on.
Prompt: API: value(readout= pIC50, system= VEGFR2 (Rattus norvegicus), query= COc1ccc2nc(-c3n[nH]cc3C=Cc3cncc4ccccc34)[nH]c2c1 )
Completion: 6.21

---

UniProt P97477: recorded pIC50 for assorted molecules
Sequence (P97477 whole entry): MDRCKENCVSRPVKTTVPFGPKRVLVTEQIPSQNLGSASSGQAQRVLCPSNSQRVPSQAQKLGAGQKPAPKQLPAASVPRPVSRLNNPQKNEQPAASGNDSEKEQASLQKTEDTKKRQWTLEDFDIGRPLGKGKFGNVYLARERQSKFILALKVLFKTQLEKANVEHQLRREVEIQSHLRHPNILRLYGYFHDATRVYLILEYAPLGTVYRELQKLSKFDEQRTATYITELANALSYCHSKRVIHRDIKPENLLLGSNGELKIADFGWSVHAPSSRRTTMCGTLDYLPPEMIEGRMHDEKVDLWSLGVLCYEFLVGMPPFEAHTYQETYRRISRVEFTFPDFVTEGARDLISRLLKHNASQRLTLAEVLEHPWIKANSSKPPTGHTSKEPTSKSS
Remember, pIC50 is on a log scale: it is -log10 of the molar concentration.

Worked cases, pIC50 given:
{"columns": ["SMILES_REPRESENTATION", "pIC50"],
 "data": [
  ["COc1ccc2nc(-c3n[nH]cc3C=Cc3cnccc3C)[nH]c2c1", 6.26],
  ["CCNCc1cncc(C=Cc2c[nH]nc2-c2nc3ccc(OC)cc3[nH]2)c1", 6.23]
]}

Prompt: Entry COc1ccc2nc(-c3n[nH]cc3C=Cc3cccnc3)[nH]c2c1 , system UniProt P97477: what pIC50 was measured?
Completion: 6.29

Prompt: Form field - read-out: pIC50; system: UniProt P97477; submitted item: COc1ccc2nc(-c3n[nH]cc3C=Cc3cncc(C#N)c3)[nH]c2c1
Completion: 5.38

---

# Test system: HCT-116 colon carcinoma
# PROTOCOL_TEXT: Cell proliferation inhibition assay (14C-thymidine incorporation), HCT-116
# Format: cell-based
# RUN_CONDITIONS: Homo sapiens, HCT-116 cells
RESULT_TYPE: pIC50
Expect pIC50 as a plain number equal to -log10 of the molar concentration.

The following compounds have reported results that may help.
{"columns": ["SMILES_REPRESENTATION", "TARGET_ENTITY", "RESULT_TYPE", "READOUT_VALUE"],
 "data": [
  ["COc1ccc2nc(-c3n[nH]cc3C=Cc3ccc(N)nc3)[nH]c2c1", "HCT-116 colon carcinoma", "pIC50", 5.98],
  ["CCNC(=O)c1cncc(C=Cc2c[nH]nc2-c2nc3ccc(OC)cc3[nH]2)c1", "HCT-116 colon carcinoma", "pIC50", 5.61],
  ["COc1ccc2nc(-c3n[nH]cc3C=Cc3cnccc3C)[nH]c2c1", "HCT-116 colon carcinoma", "pIC50", 5.50],
  ["COC(=O)c1cncc(C=Cc2c[nH]nc2-c2nc3ccc(OC)cc3[nH]2)c1", "HCT-116 colon carcinoma", "pIC50", 5.50]
]}

Note: attention shifts to another entry.
Prompt: Return reported pIC50; argument: COc1ccc2nc(-c3n[nH]cc3C=Cc3cccnc3)[nH]c2c1
Completion: 5.67

---

Recorded pIC50 values for a group of compounds are listed next.
# TARGET_ENTITY: HER2 (Homo sapiens, UniProt P04626)
# Construct: GST (Glutathione-S-Transferase) (N); HIS6 (N); Thrombin cleavage site (N)
# Sequence (P04626 679-1255): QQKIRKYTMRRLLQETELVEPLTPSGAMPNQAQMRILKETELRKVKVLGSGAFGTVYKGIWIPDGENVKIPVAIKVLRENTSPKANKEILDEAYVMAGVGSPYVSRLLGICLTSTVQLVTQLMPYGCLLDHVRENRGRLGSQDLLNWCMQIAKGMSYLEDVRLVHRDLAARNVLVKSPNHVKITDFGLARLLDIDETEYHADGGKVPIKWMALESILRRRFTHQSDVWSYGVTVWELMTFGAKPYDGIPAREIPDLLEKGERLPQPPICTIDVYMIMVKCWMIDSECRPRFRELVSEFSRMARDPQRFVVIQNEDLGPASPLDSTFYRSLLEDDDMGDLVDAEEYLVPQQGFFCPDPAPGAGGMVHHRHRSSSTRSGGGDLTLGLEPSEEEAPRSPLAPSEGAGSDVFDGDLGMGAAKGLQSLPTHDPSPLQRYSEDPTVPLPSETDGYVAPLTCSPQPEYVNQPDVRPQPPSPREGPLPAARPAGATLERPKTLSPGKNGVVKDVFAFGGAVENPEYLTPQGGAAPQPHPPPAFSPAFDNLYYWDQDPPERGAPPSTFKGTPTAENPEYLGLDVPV
# PROTOCOL_TEXT: HER2 kinase screening assay (33P-ATP FlashPlate)
# RUN_CONDITIONS: 10 μM ATP, biotin-poly(GT) 4:1 substrate, 1 hr at 30° C.
When answering, recall that pIC50 equals minus log10 of the concentration in mol/L, and write that number alone.

{"columns": ["SMILES_REPRESENTATION", "pIC50"],
 "data": [
  ["CN1CCN(c2ccc3nc(-c4n[nH]cc4C=Cc4cccnc4)[nH]c3c2)CC1", 5.03],
  ["CCNC(=O)c1cncc(C=Cc2c[nH]nc2-c2nc3ccc(OC)cc3[nH]2)c1", 4.44],
  ["CCNCc1cncc(C=Cc2c[nH]nc2-c2nc3ccc(OC)cc3[nH]2)c1", 5.52],
  ["COc1cncc(C=Cc2c[nH]nc2-c2nc3ccc(OC)cc3[nH]2)c1", 4.92]
]}

// below: pIC50 requested for another compound
Prompt: Write down the reported pIC50 of COc1ccc2nc(-c3n[nH]cc3C=Cc3ccc(N)nc3)[nH]c2c1 , test system: HER2 (Homo sapiens, UniProt P04626).
Completion: 5.17

Data origin: patent US7638518B2
